tested_system: OATP2B1 (Homo sapiens, UniProt O94956)
Sequence (O94956 whole entry): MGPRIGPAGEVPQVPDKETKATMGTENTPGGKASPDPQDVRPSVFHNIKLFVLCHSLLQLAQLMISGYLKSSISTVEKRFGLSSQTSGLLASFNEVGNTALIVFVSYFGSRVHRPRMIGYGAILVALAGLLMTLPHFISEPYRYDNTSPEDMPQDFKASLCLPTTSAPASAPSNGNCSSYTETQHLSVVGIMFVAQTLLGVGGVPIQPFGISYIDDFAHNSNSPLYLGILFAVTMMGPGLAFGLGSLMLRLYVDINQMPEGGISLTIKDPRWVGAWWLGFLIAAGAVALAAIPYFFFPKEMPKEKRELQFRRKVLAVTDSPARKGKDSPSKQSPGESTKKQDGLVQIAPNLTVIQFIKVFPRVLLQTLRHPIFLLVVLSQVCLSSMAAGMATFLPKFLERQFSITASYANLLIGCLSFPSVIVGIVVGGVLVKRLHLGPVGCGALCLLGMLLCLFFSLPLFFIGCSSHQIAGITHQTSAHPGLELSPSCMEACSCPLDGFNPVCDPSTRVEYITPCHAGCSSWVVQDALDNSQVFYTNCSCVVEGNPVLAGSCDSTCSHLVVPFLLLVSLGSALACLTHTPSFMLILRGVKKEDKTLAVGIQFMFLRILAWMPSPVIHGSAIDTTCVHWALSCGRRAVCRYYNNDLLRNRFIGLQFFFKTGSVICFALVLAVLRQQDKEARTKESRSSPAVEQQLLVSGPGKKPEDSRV
measurement_notes: Inhibition of human OATP2B1 expressed in Flp-In-CHO cells assessed as inhibition of OATP2B1 mediated DBF uptake using DBF as fluorescent substrate at 10 uM incubated for 2 mins by BCA assay relative to control
Format: cell-based
test_context: Flp-In-CHO cells expressing human OATP2B1, probe DBF
Record form. Attribute: inhibition at 2 min, 10 µM. Fill in for each entry.

Per the record, Oc1cc(O)c2c(c1)O[C@H](c1ccc(O)c(O)c1)[C@H](O)C2 [(-)-EPICATECHIN] has inhibition at 2 min, 10 µM of < 20%

Per the record, O=c1c(-c2ccc(O)cc2)coc2c([C@@H]3O[C@H](CO)[C@@H](O)[C@H](O)[C@H]3O)c(O)ccc12 [PUERARIN] has inhibition at 2 min, 10 µM of < 20%

Per the record, O=C(O[C@@H]1Cc2c(O)cc(O)cc2O[C@@H]1c1cc(O)c(O)c(O)c1)c1cc(O)c(O)c(O)c1 [EPIGALOCATECHIN GALLATE] has inhibition at 2 min, 10 µM of < 20%

Per the record, O=c1c(O)c(-c2ccc(O)c(O)c2)oc2c(O)c(O)cc(O)c12 [GOSSYPETIN] has inhibition at 2 min, 10 µM of < 20%

Per the record, O=C1CC(c2ccc(O)cc2)Oc2cc(O[C@@H]3O[C@H](C(=O)O)[C@@H](O)[C@H](O)[C@H]3O)c(O)c(O)c21 (some centres not stated) has inhibition at 2 min, 10 µM of ≥ 80%

Per the record, C[C@@H]1O[C@@H](OC[C@H]2O[C@@H](Oc3c(-c4ccc(O)c(O)c4)oc4cc(O)cc(O)c4c3=O)[C@H](O)[C@@H](O)[C@@H]2O)[C@H](O)[C@H](O)[C@H]1O [RUTIN] has inhibition at 2 min, 10 µM of < 20%

Per the record, C[C@@H]1O[C@@H](Oc2c(-c3ccc(O)c(O)c3)oc3cc(O)cc(O)c3c2=O)[C@H](O)[C@H](O)[C@H]1O [QUERCITRIN] has inhibition at 2 min, 10 µM of < 20%

Per the record, O=C(O[C@@H]1Cc2c(O)cc(O)cc2O[C@@H]1c1ccc(O)c(O)c1)c1cc(O)c(O)c(O)c1 [EPICATECHIN GALLATE] has inhibition at 2 min, 10 µM of < 20%

Per the record, O=c1cc(-c2ccc(O)cc2)oc2cc(O)cc(O)c12 [APIGENIN] has inhibition at 2 min, 10 µM of 40%

Per the record, O=c1c(O)c(-c2ccc(O)c(O)c2)oc2cc(O)cc(O)c12 [QUERCETIN] has inhibition at 2 min, 10 µM of 40%

Per the record, O=c1c(O[C@@H]2O[C@H](CO)[C@H](O)[C@H](O)[C@H]2O)c(-c2ccc(O)c(O)c2)oc2cc(O)cc(O)c12 [HYPEROSIDE] has inhibition at 2 min, 10 µM of 20%

Per the record, O=c1cc(-c2ccc(O)cc2)oc2cc(O[C@@H]3O[C@H](CO)[C@@H](O)[C@H](O)[C@H]3O)cc(O)c12 [APIGETRIN] has inhibition at 2 min, 10 µM of ≥ 80%
